B1: TPR 5TU (parent)
chain: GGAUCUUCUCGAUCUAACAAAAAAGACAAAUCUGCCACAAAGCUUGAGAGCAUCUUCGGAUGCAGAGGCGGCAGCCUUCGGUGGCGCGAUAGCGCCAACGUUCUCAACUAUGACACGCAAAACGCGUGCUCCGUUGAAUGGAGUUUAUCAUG

variants of: B1; assay: polymerase ribozyme fitness, log enrichment relative to wild type (log ratio); higher = more active; in vitro selection for triplet polymerase activity
This sample holds only a part of the variants without activity.
Readout Label: polymerase ribozyme fitness (log ratio)
Lab note: jot down the number only; don't add units.

Please review the entries below; each comes with its answer.
{"Mutation Label": "A41U G58A A147U", "polymerase ribozyme fitness (log ratio)": 0.803}
{"Mutation Label": "A20C A47U U101A A122U", "polymerase ribozyme fitness (log ratio)": -0.358}
{"Mutation Label": "U45A G65A U82A A106U", "polymerase ribozyme fitness (log ratio)": -0.414}

Fill blank: measured polymerase ribozyme fitness (log ratio) of the variant A16C C27A A30U C38G G48U G86U A110U C116G G141A is ____.
-4.02

Fill blank: measured polymerase ribozyme fitness (log ratio) of the variant C5U C38U C85G U101C is ____.
-1.38

Fill blank: measured polymerase ribozyme fitness (log ratio) of the variant C85G C114G G141U is ____.
-4.17

Fill blank: measured polymerase ribozyme fitness (log ratio) of the variant A106G A120U A121G A122G G143C is ____.
-2.43

Fill blank: measured polymerase ribozyme fitness (log ratio) of the variant A21C G50C C63U C93G is ____.
-1.78

Fill blank: measured polymerase ribozyme fitness (log ratio) of the variant U31G C54U U109G A137G is ____.
-2.71

Fill blank: measured polymerase ribozyme fitness (log ratio) of the variant G81A C95U is ____.
-1.88

Fill blank: measured polymerase ribozyme fitness (log ratio) of the variant U15A G58A G86A U144G is ____.
0.552

Fill blank: measured polymerase ribozyme fitness (log ratio) of the variant U55A C96A is ____.
-1.21

Fill blank: measured polymerase ribozyme fitness (log ratio) of the variant A24U U148C is ____.
-2.14

Fill blank: measured polymerase ribozyme fitness (log ratio) of the variant U31C C93G is ____.
-3.06

Fill blank: measured polymerase ribozyme fitness (log ratio) of the variant U13C C18U is ____.
0.127

Fill blank: measured polymerase ribozyme fitness (log ratio) of the variant A20G C27G A29U A97G A120G U146G is ____.
-4.06

Fill blank: measured polymerase ribozyme fitness (log ratio) of the variant A3U U55A is ____.
-0.84

Fill blank: measured polymerase ribozyme fitness (log ratio) of the variant A49U G133U is ____.
-3.93

Fill blank: measured polymerase ribozyme fitness (log ratio) of the variant A22C G86C is ____.
-2.83
